These measurements were taken from patent EP3381909A1.

# Test system: NSCLC-N6-L16
# assay name: Cytotoxicity determination, continuous drug exposure (MTT colorimetric assay)
# Type: cell-based
# condition parameters: Homo sapiens, read-out: IC50: Half maximal inhibitory concentration
measure name: pIC50
Please express pIC50 as -log10 of the molar concentration.

INSERT INTO results (compound, measure_name, meas_value) VALUES
  ('NC1=NC(C23CC4CC(CC(C4)C2)C3)N(Cc2ccc(Cl)cc2)C(N)=N1 (centres unmarked) [A204]', 'pIC50', 5.30);

Which pIC50 reading was recorded for the compound NC1=NC(C23CC4CC(CC(C4)C2)C3)N(c2ccc(Cl)cc2)C(N)=N1 (centres unmarked) [A190] ?
4.62
